# Test system: TSE cells stably expressing GLS2
# PROTOCOL_SUMMARY: 6-day cell proliferation assay, TSE stably expressing GLS2
# Format: cell-based, human
# MEASUREMENT_PARAMETERS: TSE GLS2 clone 1, 6 days
# Procedure: Culture medium was added to 12-well plates (1 ml/well) and wells were seeded with cells at Day 0 as follows. MCF7, T-47D, BT-474, HCC38 cells: […] cells/well. MDA-MB-453 and MDA-MB-231 cells: 1×10^4 cells/well. TSE and Hs 578T cells: 0.3×10^4 cells/well. […] On Day 6 cells were trypsinized and suspended in an appropriate volume of culture medium, and the total number of cells per well was determined using a hemocytometer or a TC20 Automated Cell Counter (Bio-Rad). […]
METRIC: EC50 (µM)
Give a bare numeral; the unit µM is implied.

Need EC50, item CN(C)c1ccc(C2Nc3ccc4ccccc4c3C3=C2C(=O)CC(C)(C)C3)cc1Br (centres unmarked) [Compound 968]
7

----------
# System: BT-474 cells
# PROTOCOL_SUMMARY: 6-day cell proliferation assay, BT-474
# Format: cell-based, human
# MEASUREMENT_PARAMETERS: Homo sapiens, 144 h; BT-474, proliferation over 6 days
METRIC: EC50

Give its EC50 value. Item: O=C(Cc1cccc(OC(F)(F)F)c1)Nc1ccc(CCCCc2nnc(NC(=O)Cc3ccccn3)s2)nn1
> 1000 nM

----------
# System: DU4475 cells
# PROTOCOL_SUMMARY: 6-day cell proliferation assay, DU4475
# Assay type: cell-based, human
# MEASUREMENT_PARAMETERS: DU4475, proliferation over 6 days
METRIC: EC50 (µM)
# number only, unit µM dropped from output

# get_value(readout='EC50', item= CN(C)c1ccc(C2Nc3ccc4ccccc4c3C3=C2C(=O)CC(C)(C)C3)cc1Br (centres unmarked) )
4

----------
# Tested on: MCF7 cells
# PROTOCOL_SUMMARY: 6-day cell proliferation assay, MCF7
# Format: cell-based, human
# MEASUREMENT_PARAMETERS: Homo sapiens, 144 h; MCF7, proliferation over 6 days
pEC50: −log10 of the molar value.
METRIC: pEC50

Identify the measured pEC50 of O=C(Cc1cccc(OC(F)(F)F)c1)Nc1ccc(CCCCc2nnc(NC(=O)Cc3ccccn3)s2)nn1 for MCF7 cells.
< 6.00
